EXPERIMENT_DESCRIPTION: Half life in human
Format: ADME
half-life listing for selected compounds.
Answer with a number only, understood to be in h.

Q: Which half-life is reported for this compound? CN1CC(=O)N2[C@H](c3ccc4c(c3)OCO4)c3[nH]c4ccccc4c3C[C@@H]2C1=O
Ans: 17.5

Q: Returns the measured half-life for the input compound. Input: OC(CNc1nc(-c2cc(-c3ccon3)n(Cc3ccccc3F)n2)ncc1F)(C(F)(F)F)C(F)(F)F
Ans: 24

Q: Give its half-life value. Item: O=C(O)COC[C@H]1CC[C@H](COC(=O)N(c2ccccc2)c2ccc(Cl)cc2)CC1
Ans: 24

Q: Return reported half-life; argument: NC(=O)[C@](O)(CNc1nc(-c2cc(-c3ccon3)n(Cc3ccccc3F)n2)ncc1F)C(F)(F)F
Ans: 30

Q: Recorded half-life of CCCOc1ccc(S(=O)(=O)NCCC2CCCN2C)cc1-c1nc2c(CCC)nn(C)c2c(=O)[nH]1 (stereo not given) , please.
Ans: 12.3
